Reference source: the SangsterLogP compilation

Experiment: method code SF-HPLC, from Marrel, C.; Boss, G.; Van, H.; Testa, B.; Cooper, D.; Jenner, P.; Marsden, C. (1985). L-DOPA esters as potential prodrugs. Part. I. Physicochemical properties. Eur J Med Chem, 20(5)459-465.
Below, each entry is listed alongside its reported logP.
Answer as a number with no unit attached.

Request: Given CC(O)COC(=O)[C@@H](N)Cc1ccc(O)c(O)c1 (stereo partly drawn) , state its recorded logP.
Response: -0.49

Request: Consider the compound COCC(C)OC(=O)[C@@H](N)Cc1ccc(O)c(O)c1 (stereo partly drawn) and give its measured logP.
Response: 0.08

Request: Would you kindly share the measured logP for N[C@@H](Cc1ccc(O)c(O)c1)C(=O)OCC1CCCCO1 (stereo partly drawn) ?
Response: 0.47

* * *

Item-by-item account of logD
Assay: method code SF-HPLC, from Marrel, C.; Boss, G.; Van, H.; Testa, B.; Cooper, D.; Jenner, P.; Marsden, C. (1985). L-DOPA esters as potential prodrugs. Part. I. Physicochemical properties. Eur J Med Chem, 20(5)459-465.
Details: pH 7.4
Reply: number alone, nothing else.

Here is how some compounds turned out for logD.
>  <ITEM SMILES>
N[C@@H](Cc1ccc(O)c(O)c1)C(=O)OCCOc1ccccc1

>  <logD>
1.35

$$$$
>  <ITEM SMILES>
N[C@@H](Cc1ccc(O)c(O)c1)C(=O)OCCc1ccccc1

>  <logD>
1.57

$$$$
>  <ITEM SMILES>
N[C@@H](Cc1ccc(O)c(O)c1)C(=O)OCCc1ccc(Cl)cc1

>  <logD>
2.12

$$$$

Request: Requested read-out: logD. Entry: `CCOC(=O)[C@@H](N)Cc1ccc(O)c(O)c1`
Response: 0.01

Request: logD lookup needed for `N[C@@H](Cc1ccc(O)c(O)c1)C(=O)OC1CCCCC1` , thanks.
Response: 1.53

Request: Need logD, item `COc1ccc(CCOC(=O)[C@@H](N)Cc2ccc(O)c(O)c2)cc1`
Response: 1.5

Request: Which logD value belongs to `CCCOC(=O)[C@@H](N)Cc1ccc(O)c(O)c1` ?
Response: 0.55
